Please provide measured relative viability for the entries that follow.
# Test system: NCI-H1563
# methodSummary: relative viability (nuclei count vs DMSO), 5 days (fraction); higher = more cells survive
# testConditions: first compound 0.01 µM

// query Read the entry CC(C)Oc1cc(Nc2nc(N[C@@H](C)c3ccc(F)cn3)ncc2Cl)n[nH]1 [AZ23] + C[C@]1(O)C[C@@H](c2nc(-c3ccc4ccc(-c5ccccc5)nc4c3)c3c(N)nccn32)C1 [Linsitinib] (partner 1 µM) and write its reported relative viability.
// result 1.14

// query Return reported relative viability. Input compound: CC(C)Oc1cc(Nc2nc(N[C@@H](C)c3ccc(F)cn3)ncc2Cl)n[nH]1 [AZ23] + COc1cc2c(Oc3ccc(NC(=O)C4(C(=O)Nc5ccc(F)cc5)CC4)cc3F)ccnc2cc1OCCCN1CCOCC1 [Foretinib] (partner 0.25 µM)
// result 0.922

// query For the compound CC(C)Oc1cc(Nc2nc(N[C@@H](C)c3ccc(F)cn3)ncc2Cl)n[nH]1 [AZ23] + COc1cccc2cc(-c3nc([C@H]4CC[C@H](C(=O)O)CC4)n4ncnc(N)c34)[nH]c12 [OSI-027] (partner 0.5 µM) , give its reported relative viability.
// result 0.768

// query Answer with the recorded relative viability for the compound listed here: CC(C)Oc1cc(Nc2nc(N[C@@H](C)c3ccc(F)cn3)ncc2Cl)n[nH]1 [AZ23] + CS(=O)(=O)N1CCN(Cc2cc3nc(-c4cccc5[nH]ncc45)nc(N4CCOCC4)c3s2)CC1 [Pictilisib] (partner 1 µM)
// result 0.682

// query Note down relative viability recorded for CC(C)Oc1cc(Nc2nc(N[C@@H](C)c3ccc(F)cn3)ncc2Cl)n[nH]1 [AZ23] + CC(C)C[C@H](NC(=O)[C@H](Cc1ccccc1)NC(=O)c1cnccn1)B(O)O [Bortezomib] (partner 0.002 µM)
// result 0.931

---

# System: NCI-H358
# methodSummary: relative viability (nuclei count vs DMSO), 5 days (fraction); higher = more cells survive
# testConditions: first compound 0.4 µM
assayEndpoint: relative viability
Number, no unit, nothing else.

// query Please give the documented relative viability of COc1cc(N2CCC(C(N)=O)CC2)ccc1Nc1nc(N)c(Cl)c(Nc2ccccc2S(=O)(=O)C(C)C)n1 [HG-5-88-01] + COc1cccc2cc(-c3nc([C@H]4CC[C@H](C(=O)O)CC4)n4ncnc(N)c34)[nH]c12 [OSI-027] (partner 0.5 µM)
// result 0.588

// query // Input: Clc1ccc(Nc2nnc(Cc3ccncc3)c3ccccc23)cc1 [Vatalanib] + CC(=O)c1c(C)c2cnc(Nc3ccc(N4CCNCC4)cn3)nc2n(C2CCCC2)c1=O [Palbociclib] (partner 0.5 µM) . Output its relative viability only.
// result 0.149

// query Give relative viability for the following compound: C[C@@H]1CN(CC(=O)Nc2ccc3c(c2)Cc2cccc(-c4cc(=O)cc(N5CCOCC5)o4)c2S3)C[C@H](C)O1 + Nc1nc2[nH]cc(CCc3ccc(C(=O)N[C@@H](CCC(=O)O)C(=O)O)cc3)c2c(=O)[nH]1 [Pemetrexed] (partner 0.2 µM)
// result 0.162

// query Supply reported relative viability belonging to this compound: COc1cc(N2CCC(C(N)=O)CC2)ccc1Nc1nc(N)c(Cl)c(Nc2ccccc2S(=O)(=O)C(C)C)n1 [HG-5-88-01] + Cc1nc(NC(=O)N2CCC[C@H]2C(N)=O)sc1-c1ccnc(C(C)(C)C(F)(F)F)c1 [Alpelisib] (partner 2 µM)
// result 0.497
